Attribution: patent US7879571B2

test system: CD4+ T-cells; test: I-MUNE assay: CD4+ T-cell proliferation with dendritic cells and 15-mer peptides offset by 3 amino acids, community donors; details: Table 3
MEASUREMENT_TYPE: Structure Value
No unit in the answer, please; the number alone is enough.

Please review the following examples before continuing.
E7 31: HPV E7 protein, HPV strain 31 (protein, UniProt P17387 1-98, looked up) Protein E7: MRGETPTLQDYVLDLQPEATDLHCYEQLPDSSDEEDVIDSPAGQAEPDTSNYNIVTFCCQCKSTLRLCVQSTQVDIRILQELLMGSFGIVCPNCSTRL | 0.78
E7 33: HPV E7 protein, HPV strain 33 (protein, UniProt P06429 1-97, looked up) Protein E7: MRGHKPTLKEYVLDLYPEPTDLYCYEQLSDSSDEDEGLDRPDGQAQPATADYYIVTCCHTCNTTVRLCVNSTASDLRTIQQLLMGTVNIVCPTCAQQ | 0.54

Q: Recorded Structure Value for E6 33: human papillomavirus E6 protein, HPV strain 33 (protein, UniProt P06427 1-149, looked up) Protein E6: MFQDTEEKPRTLHDLCQALETTIHNIELQCVECKKPLQRSEVYDFAFADLTVVYREGNPFGICKLCLRFLSKISEYRHYNYSVYGNTLEQTVKKPLNEILIRCIICQRPLCPQEKKRHVDLNKRFHNISGRWAGRCAACWRSRRRETAL , please?
Result: 0.68
